Biological target: Proteinase-activated receptor 1 (Homo sapiens)
Assay: Antagonist activity at PAR1 expressed in CHO cells assessed as inhibition of SFLLR-induced intracellular calcium release at 10 uM
Assay type: functional, cell-based
Tag: Met if measured inhibition is not below 90%, Not met if it is.

# count of solved cases: 5
{"molecule": "CCOC(c1ccc(C(F)(F)F)cc1)C(SC(C)(C)C)n1ccnc1 (stereo unspecified)", "label.class": "Met"}
{"molecule": "CCOC(c1ccc(Cl)cc1)C(SC(C)(C)C)n1cncc1Cl (stereo unspecified)", "label.class": "Not met"}
{"molecule": "CCOC(c1ccc(Cl)cc1)C(SC(C)(C)C)n1cccn1 (stereo unspecified)", "label.class": "Not met"}
{"molecule": "CCOC(c1cccc(OC)c1)C(SC(C)(C)C)n1ccnc1 (stereo unspecified)", "label.class": "Not met"}
{"molecule": "CCCCCSC(C(OCC)c1ccc(Cl)cc1)n1ccnc1 (stereo unspecified)", "label.class": "Not met"}

# input Is inhibition for CC(C)(C)SC(C(O)c1ccc(Cl)cc1)n1ccnc1 (stereo unspecified) at or above 90%?
# output Not met

# input Is inhibition for CCOC(c1ccc(Br)cc1)C(SC(C)(C)C)n1cnc(C)c1 (stereo unspecified) at or above 90%?
# output Met

# input Is inhibition for CCOC(c1ccc(Cl)cc1)C(SC(C)(C)C)n1cnc(C(F)(F)F)c1 (stereo unspecified) at or above 90%?
# output Not met

# input Is inhibition for CCCOC(c1ccc(Cl)c(Cl)c1)C(OC(C)(C)C)n1cnc(C)c1 (stereo unspecified) at or above 90%?
# output Not met
